EXPERIMENTAL_TARGET: human mature TGFβ3 (Homo sapiens, UniProt P10600)
Sequence (P10600 301-412): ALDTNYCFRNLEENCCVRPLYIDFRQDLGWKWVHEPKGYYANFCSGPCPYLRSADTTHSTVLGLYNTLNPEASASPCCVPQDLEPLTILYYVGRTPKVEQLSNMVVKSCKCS
ASSAY_PROTOCOL: cell-based or functional assay
MEASURED_PARAMETER: TGFβ inhibition by HEK-Blue cells (IC50: nM), TGFb3; Blocking: Complete
Numbers only, in nM.

{"columns": ["BINDER", "OBS_VALUE"],
 "data": [
  ["h4A11.v2.2 (antibody, V domains shown, as the VH of m7 (h4A11.v2) with the stated change; numbers count on: Kabat numbering of the heavy chain; as the VL of m7 (h4A11.v2); human IgG1; also called v2.2_Q81N; source: Expi293F, transient, purified (Protein A, SEC)) VH: EQQLVESGGGLVQPGGSLRLSCAVSGFSLSSYTVNWVRQAPGKGLEWIGYISYGGSAYYASWANGRFTISKDSAKNSVYLNMNSLRAEDTAVYFCARHMQVGGAPTGSMAAFDPWGPGTLVTVSS VL: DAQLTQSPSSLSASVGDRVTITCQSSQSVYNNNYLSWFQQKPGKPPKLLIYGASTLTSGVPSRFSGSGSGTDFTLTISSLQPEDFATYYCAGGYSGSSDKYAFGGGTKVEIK", 0.4]
]}

The following binders each have a reported value; give each one's TGFβ inhibition by HEK-Blue cells (IC50: nM), TGFb3; Blocking: Complete.
1. h4A11.v2.6 (antibody, V domains shown, as the VH of m7 (h4A11.v2) with the stated changes; numbers count on: Kabat numbering of the heavy chain; as the VL of m7 (h4A11.v2); human IgG1; also called v2.6_ R19S, Y79S, Q81S; source: Expi293F, transient, purified (Protein A, SEC)) VH: EQQLVESGGGLVQPGGSLSLSCAVSGFSLSSYTVNWVRQAPGKGLEWIGYISYGGSAYYASWANGRFTISKDSAKNSVSLSMNSLRAEDTAVYFCARHMQVGGAPTGSMAAFDPWGPGTLVTVSS VL: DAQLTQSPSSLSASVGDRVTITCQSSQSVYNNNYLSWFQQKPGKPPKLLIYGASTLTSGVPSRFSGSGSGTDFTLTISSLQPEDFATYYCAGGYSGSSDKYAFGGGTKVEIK
2. h4A11.v2.5 (antibody, V domains shown, as the VH of m7 (h4A11.v2) with the stated changes; numbers count on: Kabat numbering of the heavy chain; as the VL of m7 (h4A11.v2); human IgG1; also called v2.5_ R19S, Q81S; source: Expi293F, transient, purified (Protein A, SEC)) VH: EQQLVESGGGLVQPGGSLSLSCAVSGFSLSSYTVNWVRQAPGKGLEWIGYISYGGSAYYASWANGRFTISKDSAKNSVYLSMNSLRAEDTAVYFCARHMQVGGAPTGSMAAFDPWGPGTLVTVSS VL: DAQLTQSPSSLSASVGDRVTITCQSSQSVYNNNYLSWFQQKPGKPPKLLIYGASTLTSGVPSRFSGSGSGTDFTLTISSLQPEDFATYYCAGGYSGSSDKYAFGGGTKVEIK

A.
[0.3, 0.1]
